- Measured on: T1, human LAP-TGFB1 Fc fusion (human)
- T1 construct: also called human LAP-TGFβ1-Fc; human LAP-TGFβ-Fc isoform 1
- Assay explanation: SPR pH 7.4, antigen-Fc captured, Fab analyte
Reported koff is given for each of the following binders.

Binder	Unit text	koff
64BLH (Fab, V domains shown, also called 16BLM Fab) VH: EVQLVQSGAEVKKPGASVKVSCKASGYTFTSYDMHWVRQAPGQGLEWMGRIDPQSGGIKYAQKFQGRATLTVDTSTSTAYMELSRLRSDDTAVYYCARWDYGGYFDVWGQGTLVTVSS VL: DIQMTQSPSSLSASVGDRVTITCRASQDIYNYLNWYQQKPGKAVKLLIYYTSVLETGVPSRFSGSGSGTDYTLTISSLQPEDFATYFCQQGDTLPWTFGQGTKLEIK	s⁻¹	0.0005
56BLH (Fab, V domains shown, also called 08BLM Fab) VH: EVQLVQSGAEVKKPGASVKVSCKASGYTFTSYDMHWVRQAPGQGLEWMGRIDPQSGGTKYAQKFQGRATLTVDTSTSTAYMELSRLRSDDTAVYYCARWDYGGQFDVWGQGTLVTVSS VL: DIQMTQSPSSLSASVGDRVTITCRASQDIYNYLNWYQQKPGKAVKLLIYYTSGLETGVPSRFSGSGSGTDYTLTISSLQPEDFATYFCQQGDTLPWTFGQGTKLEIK	s⁻¹	2.57e-05
